system: NALM-16; experiment: selective drug sensitivity score (sDSS, relative to normal bone marrow) (sDSS (score)); higher = more potent and effective on the cell line relative to normal bone marrow cells; conditions: 72 h;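 note: ALL cell lines in 384-well plates, five doses spanning 10,000-fold, each plate scaled between vehicle and 100 µmol/L benzalkonium chloride controls, sDSS an adapted area-under-curve metric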
// label = 1 if selective drug sensitivity score is not less than 0.2, otherwise 0

compound	assayed target	class label
CC(C)(C)NC(=O)[C@H]1CC[C@H]2[C@@H]3CC[C@H]4NC(=O)C=C[C@]4(C)[C@H]3CC[C@]12C [Finasteride] (top concentration 10000 nM)	NALM-16	0
S=C(NCc1ccc2c(c1)OCO2)N1CCN(c2ncnc3c2oc2ccccc23)CC1 [Amuvatinib] (top concentration 10000 nM)	NALM-16	1
CCNC(=O)c1noc(-c2cc(C(C)C)c(O)cc2O)c1-c1ccc(CN2CCOCC2)cc1 [Luminespib] (top concentration 1000 nM)	NALM-16	0
C=CCn1c(=O)c2cnc(Nc3ccc(N4CCN(C)CC4)cc3)nc2n1-c1cccc(C(C)(C)O)n1 [AZD1775] (top concentration 10000 nM)	NALM-16	1
Cn1cc(-c2cnn3c(N)c(Br)c([C@@H]4CCCNC4)nc23)cn1 [MK-8776] (top concentration 2500 nM)	NALM-16	1
O=C(c1ccc(OCCN2CCCCC2)cc1)c1c(-c2ccc(O)cc2)sc2cc(O)ccc12 [Raloxifene] (top concentration 10000 nM)	NALM-16	0
Cc1ccc(NC(=O)c2ccc(CN3CCN(C)CC3)cc2)cc1Nc1nc(-c2cccnc2)cs1 [Masitinib] (top concentration 10000 nM)	NALM-16	0
CN(C)Cc1ccc(S(=O)(=O)n2ccc(/C=C/C(=O)NO)c2)cc1 [Resminostat] (top concentration 10000 nM)	NALM-16	1
CNc1nc(Nc2cn(C(C)(C)C#N)nc2C)ncc1C(F)(F)F [GNE-0877] (top concentration 1000 nM)	NALM-16	0
CNC(=O)c1ccc(N2C(=S)N(c3ccc(C#N)c(C(F)(F)F)c3)C(=O)C2(C)C)cc1F [Enzalutamide] (top concentration 10000 nM)	NALM-16	0
COC(=O)c1ccc2c(c1)[nH]c1ncnc(NCCCN3CCCCC3)c12 [UM729] (top concentration 10000 nM)	NALM-16	1
O=C1Cc2cc(C(=O)NC3C[C@H]4CC[C@@H](C3)N4S(=O)(=O)CC3CCN(CCCC(F)(F)F)CC3)c(Cl)cc2N1 (stereo partly drawn) (top concentration 10000 nM)	NALM-16	0
COc1ccc(-c2nc(N3CCOCC3)c3sc(CN(C)c4ncc(C(=O)NO)cn4)cc3n2)cn1 [Fimepinostat (CUDC-907)] (top concentration 10000 nM)	NALM-16	1

----------
tested on: ALL-PO; experiment: selective drug sensitivity score (sDSS, relative to normal bone marrow) (sDSS (score)); higher = more potent and effective on the cell line relative to normal bone marrow cells; conditions: 72 h
Item-by-item account of selective drug sensitivity score
parameter measured: selective drug sensitivity score

>>> df
                                   compound  measured_number
0  CNC(=O)c1ccc(N2C(=S)N(c3ccc(C#N)c(C(F)(F)F)c3)C(=O)C2(C)C)cc1F [Enzalutamide] (top concentration 10000 nM)             0.88
1  OC[C@H]1O[C@@H](n2cnc3c2N=CNC[C@H]3O)C[C@@H]1O [Pentostatin] (top concentration 10000 nM)            -0.44
2  CC(C)(C)NC(=O)[C@H]1CC[C@H]2[C@@H]3CC[C@H]4NC(=O)C=C[C@]4(C)[C@H]3CC[C@]12C [Finasteride] (top concentration 10000 nM)             0.48
3  COc1cccc2c1c(O)c(C(=O)N(C)c1ccc(C(F)(F)F)cc1)c(=O)n2C [Tasquinimod] (top concentration 10000 nM)            -0.32
4  S=C(NCc1ccc2c(c1)OCO2)N1CCN(c2ncnc3c2oc2ccccc23)CC1 [Amuvatinib] (top concentration 10000 nM)             1.16
5  CN(C)C(=N)NC(=N)N [Metformin] (top concentration 100000 nM)            -0.02
